system: HOP-62 complex spheroids with HUVEC/MSC, viability; test: Anticancer human tumor HOP-62 cell line growth inhibition [RAS]; settings: second compound 0.000949 µM; first compound 0.0316 µM; hits give low values
readoutLabel: viability, T/C (%)
Express your answer in %, writing the number without its unit.

1. CC(C)n1nc(-c2ccc3oc(N)nc3c2)c2c(N)ncnc21 + CCn1c(-c2cc(N3CCN(C)CC3)cnc2C(C)OC)c2c3cc(ccc31)-c1csc(n1)CC(NC(=O)C1CC1C)C(=O)N1CCCC(N1)C(=O)OCC(C)(C)C2 :: 59.5
2. CC(Nc1ccc2c(c1)OCCn1cc(N3C(=O)OCC3C(F)F)nc1-2)C(N)=O (centres undefined) + CCn1c(-c2cccnc2C(C)OC)c2c3cc(ccc31)N1CCOC(CC(NC(=O)C(C(C)C)N(C)C(=O)C3(F)CCN(C(=O)C#CC(C)(C)N(C)C)CC3)C(=O)N3CCCC(N3)C(=O)OCC(C)(C)C2)C1 :: 99.7
3. CC(C)NCC(C(=O)N1CCN(c2ncnc3c2C(C)CC3O)CC1)c1ccc(Cl)cc1 (centres undefined) + CCn1c(-c2cc(N3CCN(C)CC3)cnc2C(C)OC)c2c3cc(ccc31)-c1csc(n1)CC(NC(=O)C1CC1C)C(=O)N1CCCC(N1)C(=O)OCC(C)(C)C2 :: 121

*Q* Item under review: C=CC(=O)Nc1cc(Nc2nccc(-c3cn(C)c4ccccc34)n2)c(OC)cc1N(C)CCN(C)C + CCn1c(-c2cc(N3CCN(C)CC3)cnc2C(C)OC)c2c3cc(ccc31)-c1csc(n1)CC(NC(=O)C1CC1C)C(=O)N1CCCC(N1)C(=O)OCC(C)(C)C2 . Reported viability, T/C?
*A* 85.8

###

system: HOP-62 complex spheroids with HUVEC/MSC, viability; assay: Anticancer human tumor HOP-62 cell line growth inhibition [RAS]; conditions: second compound 0.03 µM; first compound 3.16 µM; hits give low values
This listing pairs compounds with measured viability, T/C.
Quick reminder: number only, in %, skip the unit.

1) CC(Nc1ccc2c(c1)OCCn1cc(N3C(=O)OCC3C(F)F)nc1-2)C(N)=O (centres undefined) + CCn1c(-c2cccnc2C(C)OC)c2c3cc(ccc31)N1CCOC(CC(NC(=O)C(C(C)C)N(C)C(=O)C3(F)CCN(C(=O)C#CC(C)(C)N(C)C)CC3)C(=O)N3CCCC(N3)C(=O)OCC(C)(C)C2)C1 :: 25.6
2) C[C@@H](NC(=O)c1ncnc(N)c1Cl)c1ncc(C(=O)Nc2cc(C(F)(F)F)c(Cl)cn2)s1 + CCn1c(-c2cc(N3CCN(C)CC3)cnc2C(C)OC)c2c3cc(ccc31)-c1csc(n1)CC(NC(=O)C1CC1C)C(=O)N1CCCC(N1)C(=O)OCC(C)(C)C2 :: 47.8
3) NC1c2ccccc2OC12CCN(c1cnc3c(N4CCCc5ncccc54)n[nH]c3n1)CC2 (centres undefined) + CCn1c(-c2cc(N3CCN(C)CC3)cnc2C(C)OC)c2c3cc(ccc31)-c1csc(n1)CC(NC(=O)C1CC1C)C(=O)N1CCCC(N1)C(=O)OCC(C)(C)C2 :: 11.3

*Q* Field request: viability, T/C | item: CCC(CC)c1cc(NC2CCC(N)C2)n2nccc2n1 (centres undefined) + CCn1c(-c2cccnc2C(C)OC)c2c3cc(ccc31)N1CCOC(CC(NC(=O)C(C(C)C)N(C)C(=O)C3(F)CCN(C(=O)C#CC(C)(C)N(C)C)CC3)C(=O)N3CCCC(N3)C(=O)OCC(C)(C)C2)C1
*A* 2.86

###

system: HOP-62 complex spheroids with HUVEC/MSC, viability; experiment: Anticancer human tumor HOP-62 cell line growth inhibition [RAS]; settings: second compound 0.0949 µM; first compound 0.0316 µM; hits give low values;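 further: spheroids exposed to agents for seven days before readout; 100% = DMSO vehicle control viability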
readoutLabel: viability, T/C (%)
Number in %, nothing else.

1) Cc1nc(N2CCC3(CC2)COC(C)C3N)c(CO)nc1Sc1ccnc(N)c1Cl (configuration not stated) + CCn1c(-c2cccnc2C(C)OC)c2c3cc(ccc31)N1CCOC(CC(NC(=O)C(C(C)C)N(C)C(=O)C3(F)CCN(C(=O)C#CC(C)(C)N(C)C)CC3)C(=O)N3CCCC(N3)C(=O)OCC(C)(C)C2)C1 :: 81.4

Continue with the compound presented below.
*Q* GET /values?readout=viability, T/C&item= C=CC(=O)Nc1cc(Nc2nccc(-c3cn(C)c4ccccc34)n2)c(OC)cc1N(C)CCN(C)C + CCn1c(-c2cc(N3CCN(C)CC3)cnc2C(C)OC)c2c3cc(ccc31)-c1csc(n1)CC(NC(=O)C1CC1C)C(=O)N1CCCC(N1)C(=O)OCC(C)(C)C2
*A* 33.8

###

system: HOP-62 complex spheroids with HUVEC/MSC, viability; test: Anticancer human tumor HOP-62 cell line growth inhibition [RAS]; conditions: second compound 3.16 µM; first compound 1 µM; active = viability on the fitted dose curve at most 10% of control; inactive = the rest;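 further: spheroids exposed to agents for seven days before readout; 100% = DMSO vehicle control viability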
Select the correct class. Options are active, inactive and nothing else.

See these solved cases before continuing.
1) C=CC(=O)N1CCN(c2nc(OCC3CCCN3C)nc3c(F)c(-c4nc(N)cc(C)c4C(F)(F)F)c(Cl)cc23)C(C)C1 (stereo not given) + C#Cc1c(F)ccc2cc(O)cc(-c3ncc4c(N5CC6CCC(C5)N6)nc(OCC56CCCN5CC(F)C6)nc4c3F)c12 :: inactive
2) Nc1ccn(C2OC(CO)C(O)C2(F)F)c(=O)n1 (stereo not given) + C#Cc1c(F)ccc2cc(O)cc(-c3ncc4c(N5CC6CCC(C5)N6)nc(OCC56CCCN5CC(F)C6)nc4c3F)c12 :: active
3) O=C(c1ccc(F)c(F)c1Nc1ccc(I)cc1F)N1CC(O)([C@@H]2CCCCN2)C1 + C#Cc1c(F)ccc2cc(O)cc(-c3ncc4c(N5CC6CCC(C5)N6)nc(OCC56CCCN5CC(F)C6)nc4c3F)c12 :: inactive
4) CCN1CCN(Cc2ccc(Nc3ncc(F)c(-c4cc(F)c5nc(C)n(C(C)C)c5c4)n3)nc2)CC1 + C#Cc1c(F)ccc2cc(O)cc(-c3ncc4c(N5CC6CCC(C5)N6)nc(OCC56CCCN5CC(F)C6)nc4c3F)c12 :: inactive

*Q* Outcome logged for C[C@@H](NC(=O)c1ncnc(N)c1Cl)c1ncc(C(=O)Nc2cc(C(F)(F)F)c(Cl)cn2)s1 + C#Cc1c(F)ccc2cc(O)cc(-c3ncc4c(N5CC6CCC(C5)N6)nc(OCC56CCCN5CC(F)C6)nc4c3F)c12 in this assay:
*A* inactive

###

tested on: HOP-62 complex spheroids with HUVEC/MSC, viability; test: Anticancer human tumor HOP-62 cell line growth inhibition [RAS]; details: second compound 10 µM; first compound 0.316 µM; hits give low values;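 further: spheroids exposed to agents for seven days before readout; 100% = DMSO vehicle control viability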
Threshold check on viability, T/C: strictly below 10% is 1 (yes); on or above 10% is 0 (no).

*Q* Strictly below 10%: is that where viability, T/C of CC(=O)OC12COC1CC(O)C1(C)C(=O)C(O)C3=C(C)C(OC(=O)C(O)C(NC(=O)OC(C)(C)C)c4ccccc4)CC(O)(C(OC(=O)c4ccccc4)C21)C3(C)C (stereo not given) + C#Cc1c(F)ccc2cc(O)cc(-c3ncc4c(N5CC6CCC(C5)N6)nc(OCC56CCCN5CC(F)C6)nc4c3F)c12 sits?
*A* 0 (no)

###

Reported viability, T/C values are given for each entry in this list.
test system: HOP-62 complex spheroids with HUVEC/MSC, viability; assay: Anticancer human tumor HOP-62 cell line growth inhibition [RAS]; conditions: second compound 0.1 µM; first compound 0.01 µM; hits give low values;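 further: spheroids exposed to agents for seven days before readout; 100% = DMSO vehicle control viability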
Your answer is read as %, so omit the unit and give the number.

# annotated cases, reported viability, T/C shown
1) O=C(c1ccc(F)c(F)c1Nc1ccc(I)cc1F)N1CC(O)([C@@H]2CCCCN2)C1 + C#Cc1c(F)ccc2cc(O)cc(-c3ncc4c(N5CC6CCC(C5)N6)nc(OCC56CCCN5CC(F)C6)nc4c3F)c12 :: 114
2) CCN1CCN(Cc2ccc(Nc3ncc(F)c(-c4cc(F)c5nc(C)n(C(C)C)c5c4)n3)nc2)CC1 + C#Cc1c(F)ccc2cc(O)cc(-c3ncc4c(N5CC6CCC(C5)N6)nc(OCC56CCCN5CC(F)C6)nc4c3F)c12 :: 103
3) CC(C)n1nc(-c2ccc3oc(N)nc3c2)c2c(N)ncnc21 + C#Cc1c(F)ccc2cc(O)cc(-c3ncc4c(N5CC6CCC(C5)N6)nc(OCC56CCCN5CC(F)C6)nc4c3F)c12 :: 69.6

*Q* Fill in the recorded viability, T/C for this compound, with HOP-62 complex spheroids with HUVEC/MSC, viability as test system: Nc1ccn(C2OC(CO)C(O)C2(F)F)c(=O)n1 (stereo unspecified) + C#Cc1c(F)ccc2cc(O)cc(-c3ncc4c(N5CC6CCC(C5)N6)nc(OCC56CCCN5CC(F)C6)nc4c3F)c12
*A* 11.2

*Q* Identify the measured viability, T/C of C=CC(=O)Nc1cc(Nc2nccc(-c3cn(C)c4ccccc34)n2)c(OC)cc1N(C)CCN(C)C + C#Cc1c(F)ccc2cc(O)cc(-c3ncc4c(N5CC6CCC(C5)N6)nc(OCC56CCCN5CC(F)C6)nc4c3F)c12 for HOP-62 complex spheroids with HUVEC/MSC, viability.
*A* 114

*Q* # value lookup — system HOP-62 complex spheroids with HUVEC/MSC, viability, readout viability, T/C, item Nc1ccn(C2OC(CO)C(O)C2(F)F)c(=O)n1 (stereo unspecified) + C=CC(=O)N1CCN(c2nc(OCC3CCCN3C)nc3c(F)c(-c4nc(N)cc(C)c4C(F)(F)F)c(Cl)cc23)C(C)C1
*A* 10.5

Values from PubChem BioAssay AID2060892
